# SYSTEM NAME: NLpoly 11S (Oplophorus gracilirostris, UniProt Q9GV45, A31E/A60N/A81I/D135N/F58L/F95D/G184S/G42A/G62A/G78A/G94A/G98A/H120P/I103V/I117V/I134L/K70R/L176M/L26M/L54V/L73R/L99Q/M102E/N171T/P142E/Q151K/Q38E/Q45L/T27V/V71I/Y165I)
# Sequence (Q9GV45 26-184 with the stated changes limits assumed): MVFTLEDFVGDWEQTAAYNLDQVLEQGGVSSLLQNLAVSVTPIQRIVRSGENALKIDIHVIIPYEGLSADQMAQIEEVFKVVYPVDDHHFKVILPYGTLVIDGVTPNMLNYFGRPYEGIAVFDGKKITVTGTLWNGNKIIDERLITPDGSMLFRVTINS
# PROTOCOL: biochemical
# Assay type: binding
READOUT LABEL: Kd (µM)

SUBSTANCE	NUMERIC RESULT
Ac-VEGYRLFQQAL-NH2 [array2.95, VEGYRLFQQAL]	18.8
Ac-VTGYRLFQQES-NH2 [array2.15, VTGYRLFQQES]	7.49
Ac-VEGYRLFQKAS-NH2 [array2.65, VEGYRLFQKAS]	1.93
Ac-VEGYRLFKEES-NH2 [array2.63, VEGYRLFKEES]	220
Ac-VEGYRLFKKAL-NH2 [array2.83, VEGYRLFKKAL]	1.59
Ac-VTGYRLFQKIL-NH2 [array2.37, VTGYRLFQKIL]	0.362
Ac-VTGYRLFQKES-NH2 [array2.12, VTGYRLFQKES]	0.417
Ac-VEGYRLFQEAS-NH2 [array2.71, VEGYRLFQEAS]	24
Ac-VTGYRLFQEIL-NH2 [array2.43, VTGYRLFQEIL]	17.3
